Provenance of the data: PubChem BioAssay AID248

Each entry below carries its recorded T/C.
tested on: L1210 leukemia ip in BDF1 mice, survival T/C; test: NCI In Vivo Anticancer Drug Screen. Data for tumor model L1210 Leukemia (intraperitoneal) in B6D2F1 (BDF1) mice; conditions: endpoint: mean survival time; dose: 200.0 mg/kg/injection; schedule: Q04DX003 (ip); vehicle: saline with Tween-80; higher = longer survival
Toxic doses and inconclusive results are not listed.

Consider the reported T/C for these compounds:
CS(=O)(=O)OCCN(Cc1ccc(OS(C)(=O)=O)cc1)S(C)(=O)=O: 95 % of control
CC(C)(C)C(=O)CC(=O)C(C)(C)C.CC(C)(C)C(=O)CC(=O)C(C)(C)C.CC(C)(C)C(=O)CC(=O)C(C)(C)C.CC(C)(C)C(=O)CC(=O)C(C)(C)C.[Er]: 92 % of control
O=C(O)C1=C/C(=C\C=[N+]2c3cc(O)c(OC4OC(CO)C(O)C(O)C4O)cc3CC2C(=O)[O-])CC(C(=O)O)N1 (configuration not stated): 94 % of control
CC1(C)C2CCC(CC(=O)O)C1C2 (configuration not stated): 101 % of control
NC(Cn1ccc(=O)c(O)c1)C(=O)O (configuration not stated): 94 % of control
O=C(CS(=O)(=O)C1CCCCC1)C1CCCCC1: 94 % of control
CCOc1ccc(Br)cc1C=O: 97 % of control
OC(CC(O)(C(F)(F)F)C(F)(F)F)c1ccccc1 (configuration not stated): 96 % of control

Hey, L1210 leukemia ip in BDF1 mice, survival T/C data for CCCCCCCCCCCCOC(N)=O : T/C came out at 108 % of control

Hey, L1210 leukemia ip in BDF1 mice, survival T/C data for O=C(N/N=C/c1ccc(Cl)cc1)c1ccc(Cl)cc1 : T/C came out at 98 % of control

Hey, L1210 leukemia ip in BDF1 mice, survival T/C data for CCN(CC)C(=O)C1C2C=CC(C2)C1C(=O)N(CC)CC (configuration not stated) : T/C came out at 98 % of control

Hey, L1210 leukemia ip in BDF1 mice, survival T/C data for CCOC(=O)CCC(C(=O)OCC)C(=O)OCC : T/C came out at 103 % of control
